Molecular target: ER (Homo sapiens)
Construct: endogenous in cells; probably T47D or MCF-7
Test: Western blot analysis (compounds B1-B126)
Type: cell-based
Conditions: ER degradation, read-out: Traditional Western Degradation potency (DC50)
The following molecules are shown together with reported DC50 values.
READOUT TYPE: DC50

# MOLECULE, RESULT VALUE
records = [
    ("C[C@@H]1Cc2c(ccc3[nH]ncc23)[C@@H](c2ccc(C3CCC(C(=O)N4CCC(N5Cc6cc7c(cc6C5)C(=O)N(C5CCC(=O)NC5=O)C7=O)CC4)CC3)cn2)N1CC(F)(F)F (stereo partly shown)", "10 to 100 nM"),
    ("C[C@@H]1Cc2c(ccc3[nH]ncc23)[C@@H](c2ccc(N3CCC4(CC3)CN(C(=O)CN3Cc5cc6c(cc5C3)C(=O)N(C3CCC(=O)NC3=O)C6=O)CCO4)cn2)N1CC(F)(F)F (stereo partly shown)", "10 to 100 nM"),
    ("C[C@@H]1Cc2c(ccc3[nH]ncc23)[C@@H](c2ccc(C3=CCC(C(=O)N4CCC(N5Cc6cc7c(cc6C5)C(=O)N(C5CCC(=O)NC5=O)C7=O)CC4)CC3)cn2)N1CC(F)(F)F (stereo partly shown)", "< 10 nM"),
    ("C[C@@H]1Cc2c(ccc3[nH]ncc23)[C@@H](c2c(F)cc(N3CCC4(CC3)CN(C(=O)CN3Cc5cc6c(cc5C3)C(=O)N(C3CCC(=O)NC3=O)C6=O)C4)cc2F)N1CC(F)F (stereo partly shown)", "< 10 nM"),
    ("C[C@@H]1Cc2c(ccc3[nH]ncc23)[C@@H](c2c(F)cc(N3CCC(CN4CCN(c5ccc6c(c5)C(=O)N(C5CCC(=O)NC5=O)C6=O)CC4)CC3)cc2F)N1CC(F)F (stereo partly shown)", "10 to 100 nM"),
    ("C[C@@H]1Cc2c(ccc3[nH]ncc23)[C@@H](c2c(F)cc(NC3CN(C(=O)[C@H]4CC[C@@H](N5Cc6cc7c(cc6C5)C(=O)N(C5CCC(=O)NC5=O)C7=O)CC4)C3)cc2F)N1CC(F)F (stereo partly shown)", "< 10 nM"),
    ("C[C@@H]1Cc2c(ccc3[nH]ncc23)[C@@H](c2c(F)cc(C3CCN(C(=O)[C@H]4CC[C@@H](N5Cc6cc7c(cc6C5)C(=O)N(C5CCC(=O)NC5=O)C7=O)CC4)CC3)cc2F)N1CC(F)F (stereo partly shown)", "> 100 nM"),
    ("C[C@@H]1Cc2c(ccc3[nH]ncc23)[C@@H](c2c(F)cc(N3CCC(CN4CCN5c6cc7c(cc6N(C)C[C@@H]5C4)C(=O)N(C4CCC(=O)NC4=O)C7)CC3)cc2F)N1CC(F)F (stereo partly shown)", "10 to 100 nM"),
    ("C[C@@H]1Cc2c(ccc3[nH]ncc23)[C@@H](c2c(F)cc(N3CCC(CN4CCN5c6ccc7c(c6OC[C@@H]5C4)CN(C4CCC(=O)NC4=O)C7=O)CC3)cc2F)N1CC(F)F (stereo partly shown)", "> 100 nM"),
    ("C[C@@H]1Cc2c(ccc3[nH]ncc23)[C@@H](c2c(F)cc(N3CCC(CN4CC5(Cc6cc7c(cc6C5)C(=O)N(C5CCC(=O)NC5=O)C7=O)C4)CC3)cc2F)N1CC(F)F (stereo partly shown)", "> 100 nM"),
]

====

Molecular target: ER (Homo sapiens)
Construct: endogenous in cells; probably T47D or MCF-7
Test: In-cell Western (ICW) ER degradation assay in T47D cells
Type: cell-based
Conditions: T47D, T47D cells, 16 hrs; read-out: ER T47D ICW Dmax (%)
Method: ERa degradative activity of compounds can be assessed in MCF-7 and T47D Cells. MCF-7 and T47D cell are seeded and are subsequently treated with the compounds at certain concentrations (e.g., 0.02 to 300 nM). DMSO can be used as vehicle control. Cells are fixed and are blocked with Intercept (PBS) Blocking Buffer (e.g., Li—COR, Odyssey Blocking Buffer), and are stained with ER (e.g., 1:500, Cell signaling) primary antibody for overnight at cold room. […]
The following molecules are shown together with reported Dmax values.

# MOLECULE, STUDY SYSTEM, Dmax
measured = [
    ("C[C@@H]1Cc2c(ccc3[nH]ncc23)[C@@H](c2ccc(N3CCC4(CC3)CC(CN3CCN5c6cc7c(cc6OC[C@@H]5C3)C(=O)N([C@@H]3CCC(=O)NC3=O)C7)C4)cn2)N1CC1(F)CC1", "ER (Homo sapiens)", "> 75%"),
    ("C[C@@H]1Cc2c(ccc3[nH]ncc23)[C@H](c2ccc(N3CCC4(CC3)CC(CN3CCN5c6ccc7c(c6OC[C@H]5C3)CN([C@H]3CCC(=O)NC3=O)C7=O)CO4)nc2)N1CC(F)(F)F (some centres unmarked)", "ER (Homo sapiens)", "> 75%"),
    ("C[C@@H]1Cc2c(ccc3[nH]ncc23)[C@@H](c2ccc(N3CCC4(CC3)CC(CN3CCN5c6ccc7c(c6OC[C@H]5C3)CN([C@H]3CCC(=O)NC3=O)C7=O)CO4)nc2)N1CC(F)(F)F (some centres unmarked)", "ER (Homo sapiens)", "50 to 75%"),
    ("C[C@@H]1Cc2c(ccc3[nH]ncc23)[C@@H](c2ccc(N3CC4(CCC(CN5CCN6c7ccc8c(c7OC[C@H]6C5)CN(C5CCC(=O)NC5=O)C8=O)CC4)C3)cn2)N1CC1(F)CC1 (some centres unmarked)", "ER (Homo sapiens)", "> 75%"),
    ("C[C@@H]1Cc2c(ccc3[nH]ncc23)C(c2ccc(N3CCC4(CC3)CC(CN3CCN5c6ccc7c(c6OC[C@H]5C3)CN([C@H]3CCC(=O)NC3=O)C7=O)C4)nc2)N1CC(F)(F)F (stereo in doubt) [Compound A25]", "ER (Homo sapiens)", "> 75%"),
]

====

The following compounds are shown together with reported DC50 values.
Target: ER (Homo sapiens)
Construct: endogenous in cells; probably T47D or MCF-7
Experiment: In-cell Western (ICW) ER degradation assay in MCF-7 cells
Type: cell-based
Conditions: MCF-7 cells, 16 hrs; read-out: ER MCF7 ICW DC50
READOUT TYPE: DC50

# COMPOUND, READOUT TYPE, RESULT VALUE
measured = [
    ("C[C@@H]1Cc2c(ccc3[nH]ncc23)[C@H](c2ccc(N3CCC4(CC3)CC(CN3CCN5c6ccc7c(c6OC[C@H]5C3)CN([C@H]3CCC(=O)NC3=O)C7=O)CO4)nc2)N1CC(F)(F)F (stereo partly shown)", "DC50", "< 1 nM"),
    ("C[C@H]1Cc2c(ccc3[nH]ncc23)[C@@H](c2ccc(N3CCC(CN4CCN5c6cc7c(cc6OC[C@H]5C4)C(=O)N([C@@H]4CCC(=O)NC4=O)C7)CC3)nc2)N1CC(F)(F)F (stereo in doubt)", "DC50", "10 to 100 nM"),
    ("C[C@@H]1Cc2c(ccc3[nH]ncc23)[C@@H](c2ccc(N3CCC4(CC3)CC(CN3CCN5c6ccc7c(c6OC[C@H]5C3)CN([C@H]3CCC(=O)NC3=O)C7=O)C4)cn2)N1CC1(F)CC1", "DC50", "< 1 nM"),
    ("COc1cc(N2CCC(CN3CCN4c5ccc6c(c5OC[C@H]4C3)CN(C3CCC(=O)NC3=O)C6=O)CC2)ccc1[C@@H]1c2ccc3[nH]ncc3c2C[C@@H](C)N1CC(F)F (stereo partly shown)", "DC50", "< 1 nM"),
]

====

Assay: Cell growth assay, WST-8 (compounds B1-B126)
Assay type: cell-based
Details: 96 h; T47D cell line, WST-8, 4 days; read-out: Cell growth inhibition in T47D cell line IC50
Method: Cell Growth Assay. The cells are seeded at certain concentration (e.g., at 1500/well) in multi-well plates overnight. Cells are subsequently treated with the compounds. […] The absorbance is measured on each sample using a microplate reader at certain wavelength (e.g., 450 nm). The relative absorbance is calculated against the vehicle control from three individually repeats. Cell Growth Assay. […] The absorbance was measured of each sample using a microplate reader at a wavelength of 450 nm. […]
The following compounds are shown together with reported IC50 values.
READOUT TYPE: IC50

# COMPOUND, RESULT VALUE
measured = [
    ("C[C@@H]1Cc2c(ccc3[nH]ncc23)[C@@H](c2ccc(N3CCC(N4CC(N5CCN6c7cc8c(cc7OC[C@@H]6C5)C(=O)N(C5CCC(=O)NC5=O)C8)C4)CC3)cn2)N1CC(F)(F)F (some centres unmarked) [Compound B52]", "< 1 nM"),
    ("C[C@@H]1Cc2c(ccc3[nH]ncc23)[C@@H](c2c(F)cc(NC3CN(C(=O)CN4CCN5c6cc7c(cc6OC[C@@H]5C4)C(=O)N(C4CCC(=O)NC4=O)C7)C3)cc2F)N1CC(F)F (some centres unmarked) [Compound B26]", "< 1 nM"),
    ("C[C@@H]1Cc2c(ccc3[nH]ncc23)[C@@H](c2c(F)cc(N3CC4(CCN(C(=O)CN5CCN6c7cc8c(cc7OC[C@@H]6C5)C(=O)N(C5CCC(=O)NC5=O)C8)CC4)C3)cc2F)N1CC(F)F (some centres unmarked) [Compound B22]", "< 1 nM"),
    ("COc1cc(N2CCC3(CC2)OCC(CN2CCC4(CC2)COc2c4ccc4c2CN(C2CCC(=O)NC2=O)C4=O)CO3)ccc1[C@@H]1c2ccc3[nH]ncc3c2C[C@@H](C)N1CC(F)F (some centres unmarked) [Compound B117]", "< 1 nM"),
    ("C[C@@H]1Cc2c(ccc3[nH]ncc23)[C@@H](c2c(F)cc(N3CCC4(CC3)CN(CC(=O)N3CCN5c6cc7c(cc6OC[C@@H]5C3)C(=O)N(C3CCC(=O)NC3=O)C7)C4)cc2F)N1CC(F)F (some centres unmarked) [Compound B21]", "< 1 nM"),
]
